System: COR-L 105
Assay: relative viability (nuclei count vs DMSO), 5 days (fraction); higher = more cells survive
Conditions: first compound 0.253 µM
relative viability vs 0.8: less than gives yes (1); not less than gives no (0).

Query block: Input Cc1cnc(-c2cnc(NCCNc3ccc(C#N)cn3)nc2-c2ccc(Cl)cc2Cl)[nH]1 + O=C(CCCCCCC(=O)Nc1ccccc1)NO [Vorinostat] (partner 1 µM) ; condition: relative viability strictly below 0.8. Does it hold?
Result block: yes (1)

Query block: Input O=c1[nH]c2ccccc2n1C1CCN(CCCC(c2ccc(F)cc2)c2ccc(F)cc2)CC1 [Pimozide] + CC(=O)c1c(C)c2cnc(Nc3ccc(N4CCNCC4)cn3)nc2n(C2CCCC2)c1=O [Palbociclib] (partner 0.5 µM) ; condition: relative viability strictly below 0.8. Does it hold?
Result block: yes (1)

Query block: Input O=c1[nH]c2ccccc2n1C1CCN(CCCC(c2ccc(F)cc2)c2ccc(F)cc2)CC1 [Pimozide] + CC(=O)Nc1cccc(-n2c(=O)n(C3CC3)c(=O)c3c(Nc4ccc(I)cc4F)n(C)c(=O)c(C)c32)c1 [Trametinib] (partner 0.02 µM) ; condition: relative viability strictly below 0.8. Does it hold?
Result block: yes (1)

Query block: Input Cc1cnc(-c2cnc(NCCNc3ccc(C#N)cn3)nc2-c2ccc(Cl)cc2Cl)[nH]1 + C[C@]1(O)C[C@@H](c2nc(-c3ccc4ccc(-c5ccccc5)nc4c3)c3c(N)nccn32)C1 [Linsitinib] (partner 1 µM) ; condition: relative viability strictly below 0.8. Does it hold?
Result block: no (0)

Query block: Input Cc1cnc(-c2cnc(NCCNc3ccc(C#N)cn3)nc2-c2ccc(Cl)cc2Cl)[nH]1 + Nc1nc2[nH]cc(CCc3ccc(C(=O)N[C@@H](CCC(=O)O)C(=O)O)cc3)c2c(=O)[nH]1 [Pemetrexed] (partner 0.2 µM) ; condition: relative viability strictly below 0.8. Does it hold?
Result block: no (0)

----------
System: SK-MES-1
Assay: relative viability (nuclei count vs DMSO), 5 days (fraction); higher = more cells survive
Conditions: first compound 0.002 µM
Please respond with reported relative viability for every item in the list.
Lab note: record just the number, no unit beside it.

Query block: Quick check: relative viability of CC(=O)O[C@@]12CO[C@@H]1C[C@H](O)[C@@]1(C)C(=O)[C@H](O)C3=C(C)[C@@H](OC(=O)[C@H](O)[C@@H](NC(=O)OC(C)(C)C)c4ccccc4)C[C@@](O)([C@@H](OC(=O)c4ccccc4)[C@H]21)C3(C)C [Docetaxel] + C[C@@H](Oc1cc(-c2cnn(C3CCNCC3)c2)cnc1N)c1c(Cl)ccc(F)c1Cl [Crizotinib] (partner 1 µM) ?
Result block: 0.287

Query block: Quick check: relative viability of CC(=O)O[C@@]12CO[C@@H]1C[C@H](O)[C@@]1(C)C(=O)[C@H](O)C3=C(C)[C@@H](OC(=O)[C@H](O)[C@@H](NC(=O)OC(C)(C)C)c4ccccc4)C[C@@](O)([C@@H](OC(=O)c4ccccc4)[C@H]21)C3(C)C [Docetaxel] + Cc1cc(Nc2cc(N3CCN(C)CC3)nc(Sc3ccc(NC(=O)C4CC4)cc3)n2)n[nH]1 [Tozasertib] (partner 0.1 µM) ?
Result block: 0.252

Query block: Quick check: relative viability of CC(=O)O[C@@]12CO[C@@H]1C[C@H](O)[C@@]1(C)C(=O)[C@H](O)C3=C(C)[C@@H](OC(=O)[C@H](O)[C@@H](NC(=O)OC(C)(C)C)c4ccccc4)C[C@@](O)([C@@H](OC(=O)c4ccccc4)[C@H]21)C3(C)C [Docetaxel] + Nc1nc2[nH]cc(CCc3ccc(C(=O)N[C@@H](CCC(=O)O)C(=O)O)cc3)c2c(=O)[nH]1 [Pemetrexed] (partner 0.2 µM) ?
Result block: 0.499

----------
Test system: NCI-H2228
Assay: relative viability (nuclei count vs DMSO), 5 days (fraction); higher = more cells survive
Details: first compound 15.81 µM
QUANTITY NAME: relative viability
Lab note: record just the number, no unit beside it.

Query block: Quick check: relative viability of O=C(O)CCCCC(CCSCc1ccccc1)SCc1ccccc1 (centres undefined) [CPI-613] + CS(=O)(=O)CCNCc1ccc(-c2ccc3ncnc(Nc4ccc(OCc5cccc(F)c5)c(Cl)c4)c3c2)o1 [Lapatinib] (partner 2 µM) ?
Result block: 0.979

Query block: Quick check: relative viability of O=C(O)CCCCC(CCSCc1ccccc1)SCc1ccccc1 (centres undefined) [CPI-613] + N=C(N)NC(=N)NCCc1ccccc1 [Phenformin] (partner 250 µM) ?
Result block: 0.33

Query block: Quick check: relative viability of O=C(O)CCCCC(CCSCc1ccccc1)SCc1ccccc1 (centres undefined) [CPI-613] + O=C(CCCCCCC(=O)Nc1ccccc1)NO [Vorinostat] (partner 1 µM) ?
Result block: 0.402

Query block: Quick check: relative viability of O=C(O)CCCCC(CCSCc1ccccc1)SCc1ccccc1 (centres undefined) [CPI-613] + CCNC(=O)c1noc(-c2cc(C(C)C)c(O)cc2O)c1-c1ccc(CN2CCOCC2)cc1 [Luminespib] (partner 0.01 µM) ?
Result block: 0.205

----------
Tested on: SK-MES-1
Assay: relative viability (nuclei count vs DMSO), 5 days (fraction); higher = more cells survive
Conditions: first compound 0.006325 µM
Please respond with reported relative viability for every item in the list.
Lab note: record just the number, no unit beside it.

Query block: Quick check: relative viability of CC(=O)O[C@@]12CO[C@@H]1C[C@H](O)[C@@]1(C)C(=O)[C@H](O)C3=C(C)[C@@H](OC(=O)[C@H](O)[C@@H](NC(=O)OC(C)(C)C)c4ccccc4)C[C@@](O)([C@@H](OC(=O)c4ccccc4)[C@H]21)C3(C)C [Docetaxel] + Cc1cc(Nc2cc(N3CCN(C)CC3)nc(Sc3ccc(NC(=O)C4CC4)cc3)n2)n[nH]1 [Tozasertib] (partner 0.1 µM) ?
Result block: 0.166

Query block: Quick check: relative viability of CC(=O)O[C@@]12CO[C@@H]1C[C@H](O)[C@@]1(C)C(=O)[C@H](O)C3=C(C)[C@@H](OC(=O)[C@H](O)[C@@H](NC(=O)OC(C)(C)C)c4ccccc4)C[C@@](O)([C@@H](OC(=O)c4ccccc4)[C@H]21)C3(C)C [Docetaxel] + Cc1nc(Nc2ncc(C(=O)Nc3c(C)cccc3Cl)s2)cc(N2CCN(CCO)CC2)n1 [Dasatinib] (partner 0.075 µM) ?
Result block: 0.167

----------
Tested on: NCI-H1793
Assay: relative viability (nuclei count vs DMSO), 5 days (fraction); higher = more cells survive
Settings: first compound 0.253 µM
QUANTITY NAME: relative viability

Query block: Quick check: relative viability of O=c1[nH]c2ccccc2n1C1CCN(CCCC(c2ccc(F)cc2)c2ccc(F)cc2)CC1 [Pimozide] + CS(=O)(=O)N1CCN(Cc2cc3nc(-c4cccc5[nH]ncc45)nc(N4CCOCC4)c3s2)CC1 [Pictilisib] (partner 1 µM) ?
Result block: 0.302

Query block: Quick check: relative viability of Cc1cnc(-c2cnc(NCCNc3ccc(C#N)cn3)nc2-c2ccc(Cl)cc2Cl)[nH]1 + Cc1nc(Nc2ncc(C(=O)Nc3c(C)cccc3Cl)s2)cc(N2CCN(CCO)CC2)n1 [Dasatinib] (partner 0.075 µM) ?
Result block: 0.365

Query block: Quick check: relative viability of O=c1[nH]c2ccccc2n1C1CCN(CCCC(c2ccc(F)cc2)c2ccc(F)cc2)CC1 [Pimozide] + COc1cc2c(Oc3ccc(NC(=O)C4(C(=O)Nc5ccc(F)cc5)CC4)cc3F)ccnc2cc1OCCCN1CCOCC1 [Foretinib] (partner 0.25 µM) ?
Result block: 0.691

Query block: Quick check: relative viability of O=c1[nH]c2ccccc2n1C1CCN(CCCC(c2ccc(F)cc2)c2ccc(F)cc2)CC1 [Pimozide] + N=C(N)NC(=N)NCCc1ccccc1 [Phenformin] (partner 250 µM) ?
Result block: 0.29

Query block: Quick check: relative viability of O=c1[nH]c2ccccc2n1C1CCN(CCCC(c2ccc(F)cc2)c2ccc(F)cc2)CC1 [Pimozide] + Cc1cc(Nc2cc(N3CCN(C)CC3)nc(Sc3ccc(NC(=O)C4CC4)cc3)n2)n[nH]1 [Tozasertib] (partner 0.1 µM) ?
Result block: 0.341

Query block: Quick check: relative viability of Cc1cnc(-c2cnc(NCCNc3ccc(C#N)cn3)nc2-c2ccc(Cl)cc2Cl)[nH]1 + CC(=O)c1c(C)c2cnc(Nc3ccc(N4CCNCC4)cn3)nc2n(C2CCCC2)c1=O [Palbociclib] (partner 0.5 µM) ?
Result block: 0.288

Query block: Quick check: relative viability of Cc1cnc(-c2cnc(NCCNc3ccc(C#N)cn3)nc2-c2ccc(Cl)cc2Cl)[nH]1 + O=C(c1cc(Cc2n[nH]c(=O)c3ccccc23)ccc1F)N1CCN(C(=O)C2CC2)CC1 [Olaparib] (partner 8 µM) ?
Result block: 0.755
